Every entry's value here was drawn from ChEMBL document CHEMBL5316357.

Test: Half life in female cynomolgus monkey at 30 mg/kg,po by LC-MS/MS analysis
Type: ADME, organism-based, Macaca fascicularis
Details: in vivo
Metric name: half-life (h)

>>> experimental_value("CCOC(=O)C1=C(CN2CCN3C(=O)N(CC(C)(C)C(=O)O)C[C@@H]3C2)NC(c2nccs2)=N[C@H]1c1cccc(F)c1C [LINVENCORVIR]")
5.98

###

Test: Oral bioavailability in female minipig at 10 mg/kg by LC-MS/MS analysis
Assay type: ADME, organism-based, Sus scrofa domesticus
Details: pig, in vivo
Metric name: bioavailability (%)

>>> experimental_value("CCOC(=O)C1=C(CN2CCN3C(=O)N(CC(C)(C)C(=O)O)C[C@@H]3C2)NC(c2nccs2)=N[C@H]1c1cccc(F)c1C [LINVENCORVIR]")
11.4

###

Test: Oral bioavailability in male Wistar Han rat at 10 mg/kg by LC-MS/MS analysis
Type: ADME, organism-based
Conditions: in vivo
Metric name: bioavailability (%)

>>> experimental_value("CCOC(=O)C1=C(CN2CCN3C(=O)N(CC(C)(C)C(=O)O)C[C@@H]3C2)NC(c2nccs2)=N[C@H]1c1cccc(F)c1C")
26.2

###

Assay: Half life in female minipig at 10 mg/kg,po by LC-MS/MS analysis
Type: ADME, organism-based, Sus scrofa domesticus
Conditions: pig, in vivo
Metric name: half-life

>>> experimental_value("CCOC(=O)C1=C(CN2CCN3C(=O)N(CC(C)(C)C(=O)O)C[C@@H]3C2)NC(c2nccs2)=N[C@H]1c1cccc(F)c1C")
"9.7 h"

###

Test: Cmax in male cynomolgus monkey at 3 mg/kg,po by LC-MS/MS analysis
Assay type: ADME, organism-based, Macaca fascicularis
Parameters: dose 3 mg/kg, route po
Details: in vivo
Metric name: Cmax (µg/mL)

>>> experimental_value("CCOC(=O)C1=C(CN2CCN3C(=O)N(CC(C)(C)C(=O)O)C[C@@H]3C2)NC(c2nccs2)=N[C@H]1c1cccc(F)c1C")
0.064

###

Test: Tmax in male cynomolgus monkey at 10 mg/kg,po by LC-MS/MS analysis
Assay type: ADME, organism-based, Macaca fascicularis
Details: in vivo
Metric name: Tmax (h)

>>> experimental_value("CCOC(=O)C1=C(CN2CCN3C(=O)N(CC(C)(C)C(=O)O)C[C@@H]3C2)NC(c2nccs2)=N[C@H]1c1cccc(F)c1C [LINVENCORVIR]")
2

###

Assay: Cmax in male Wistar Han rat at 30 mg/kg,po by LC-MS/MS analysis
Type: ADME, organism-based
Parameters: dose 30 mg/kg, route po
Details: in vivo
Metric name: Cmax (ng/mL)

>>> experimental_value("CCOC(=O)C1=C(CN2CCN3C(=O)N(CC(C)(C)C(=O)O)C[C@@H]3C2)NC(c2nccs2)=N[C@H]1c1cccc(F)c1C")
1350

###

Assay: Tmax in male minipig at 10 mg/kg,po by LC-MS/MS analysis
Assay type: ADME, organism-based, Sus scrofa domesticus
Conditions: pig, in vivo
Metric name: Tmax (h)

>>> experimental_value("CCOC(=O)C1=C(CN2CCN3C(=O)N(CC(C)(C)C(=O)O)C[C@@H]3C2)NC(c2nccs2)=N[C@H]1c1cccc(F)c1C")
1

###

Assay: Cytotoxicity against human HepDE19 cells assessed as reduction in cell viability incubated for 5 days by CCK-8 assay
Type: functional
Settings: HepDE19, 120 h, time 5 day
Metric name: CC50 (µM)

>>> experimental_value("COC(=O)C1=C(CN2CCN3C(=O)CC[C@H]3C2)NC(c2nccs2)=N[C@H]1c1ccc(F)cc1Cl")
71
>>> experimental_value("COC(=O)C1=C(CN2CCN3C(=O)CC[C@@H]3C2)NC(c2nccs2)=N[C@H]1c1ccc(F)cc1Cl")
45
>>> experimental_value("COC(=O)C1=C(CN2CCN3C(=O)NC[C@@H]3C2)NC(c2nccs2)=N[C@H]1c1ccc(F)cc1Cl")
52

###

Experiment: Half life in male cynomolgus monkey at 30 mg/kg,po by LC-MS/MS analysis
Format: ADME, organism-based, Macaca fascicularis
Conditions: in vivo
Metric name: half-life (h)

>>> experimental_value("CCOC(=O)C1=C(CN2CCN3C(=O)N(CC(C)(C)C(=O)O)C[C@@H]3C2)NC(c2nccs2)=N[C@H]1c1cccc(F)c1C")
6.12

###

Assay: Tmax in female Wistar Han rat at 10 mg/kg,po by LC-MS/MS analysis
Format: ADME, organism-based
Settings: in vivo
Metric name: Tmax (h)

>>> experimental_value("CCOC(=O)C1=C(CN2CCN3C(=O)N(CC(C)(C)C(=O)O)C[C@@H]3C2)NC(c2nccs2)=N[C@H]1c1cccc(F)c1C [LINVENCORVIR]")
1

###

Experiment: Clearance in rat hepatocyte at 2 uM measured upto 120 mins by LC-MS/MS analysis
Format: ADME, cell-based
Conditions: hepatocytes
Measured CLhep predicted at 2 µM accompanies every entry in the list below.
Metric name: CLhep predicted at 2 µM (mL/min/kg)

>>> experimental_value("COC(=O)C1=C(CN2CCN3C(=O)N(CC(C)(C)C(=O)O)C[C@@H]3C2)NC(c2nccs2)=N[C@H]1c1ccc(F)c(F)c1C")
16
>>> experimental_value("CCOC(=O)C1=C(CN2CCN3C(=O)N(CC(C)(C)C(=O)O)C[C@@H]3C2)NC(c2nccs2)=N[C@H]1c1ccc(F)cc1Cl")
22
>>> experimental_value("COC(=O)C1=C(CN2CCN3C(=O)N(CC(C)(C)C(=O)O)C[C@@H]3C2)NC(c2nccs2)=N[C@H]1c1ccc(F)cc1Cl")
14
>>> experimental_value("CCOC(=O)C1=C(CN2CCN3C(=O)N(CC(C)(C)C(=O)O)C[C@@H]3C2)NC(c2nccs2)=N[C@H]1c1cccc(F)c1Cl")
17
>>> experimental_value("CCOC(=O)C1=C(CN2CCN3C(=O)N(CC(C)(C)C(=O)O)C[C@@H]3C2)NC(c2nccs2)=N[C@H]1c1cccc(F)c1C")
11

###

Test: Half life in male Wistar Han rat at 10 mg/kg,po by LC-MS/MS analysis
Type: ADME, organism-based
Settings: in vivo
Metric name: half-life (h)

>>> experimental_value("CCOC(=O)C1=C(CN2CCN3C(=O)N(CC(C)(C)C(=O)O)C[C@@H]3C2)NC(c2nccs2)=N[C@H]1c1cccc(F)c1C")
1.43

###

Measured AUC accompanies every entry in the list below.
Assay: AUC (0-infinity) in rat plasma at 3 mg/kg,po
Type: ADME, organism-based
Set-up: dose 3 mg/kg, route po
Details: in vivo
Metric name: AUC (ng·h/mL)

>>> experimental_value("CCOC(=O)C1=C(CN2C[C@H]3CN(C(C)(C)C)C(=O)N3C[C@@H]2C(=O)O)NC(c2nccs2)=N[C@H]1c1ccc(F)cc1Cl")
2.7
>>> experimental_value("COC(=O)C1=C(CN2CCN3C(=O)N(CC(C)(C)C(=O)O)C[C@@H]3C2)NC(c2nccs2)=N[C@H]1c1ccc(F)c(F)c1C")
43
>>> experimental_value("CCOC(=O)C1=C(CN2CCN3C(=O)N(CC(C)(C)C(=O)O)C[C@@H]3C2)NC(c2nccs2)=N[C@H]1c1ccc(F)cc1Cl")
70
>>> experimental_value("CCOC(=O)C1=C(CN2CCN3C(=O)N(CC(C)(C)C(=O)O)C[C@@H]3C2)NC(c2nccs2)=N[C@H]1c1ccc(F)c(F)c1C")
43
>>> experimental_value("COC(=O)C1=C(CN2CCN3C(=O)N(CC(C)(C)C(=O)O)C[C@@H]3C2)NC(c2nccs2)=N[C@H]1c1ccc(F)cc1Cl")
26

###

Experiment: Half life in Wistar Han rat at 2 mg/kg,iv by LC-MS/MS analysis
Assay type: ADME, organism-based
Conditions: in vivo
Metric name: half-life (h)

>>> experimental_value("CCOC(=O)C1=C(CN2CCN3C(=O)N(CC(C)(C)C(=O)O)C[C@@H]3C2)NC(c2nccs2)=N[C@H]1c1cccc(F)c1C")
1.46

###

Measured AUC accompanies every entry in the list below.
Assay: AUC (0-infinity) in mouse plasma at 1 mg/kg,iv
Format: ADME, organism-based
Parameters: dose 1 mg/kg, route iv
Conditions: in vivo
Metric name: AUC (ng·h/mL)

>>> experimental_value("CCOC(=O)C1=C(CN2CCN3C(=O)N(CC(C)(C)C(=O)O)C[C@@H]3C2)NC(c2nccs2)=N[C@H]1c1ccc(F)cc1Cl")
323
>>> experimental_value("CCOC(=O)C1=C(CN2CCN3C(=O)N(CC(C)(C)C(=O)O)C[C@@H]3C2)NC(c2nccs2)=N[C@H]1c1cccc(F)c1C")
837
>>> experimental_value("CCOC(=O)C1=C(CN2C[C@H]3CN(C(C)(C)C)C(=O)N3C[C@@H]2C(=O)O)NC(c2nccs2)=N[C@H]1c1ccc(F)cc1Cl")
65
>>> experimental_value("CCOC(=O)C1=C(CN2CCN3C(=O)N(CC(C)(C)C(=O)O)C[C@@H]3C2)NC(c2nccs2)=N[C@H]1c1cccc(F)c1Cl")
471
